FYI, the data here is from paper PMC6792352.

Test system: GH3-TRE-Luc cell line
Details: read-out: AC50 (uM) modified / 1000; Tox21_110001=Tox21_303623; viability, 1 nM T3 present, 24 h
assay.readout: CC50 (µM)
Report only the number, with the unit µM understood.

Request: // CC50 lookup, key: C#C[C@]1(O)CC[C@H]2[C@@H]3CCC4=CC(=O)CC[C@@H]4[C@H]3CC[C@@]21CC (racemic)
Result: 64.5

====

Test system: GH3-TRE-Luc cell line
Conditions: read-out: AC50 (uM) modified / 1000; Tox21_110001=Tox21_302822; viability, 1 nM T3 present, 24 h
assay.readout: CC50 (µM)
Please state the figure in µM; there is no need to write the unit.

Request: Name the recorded CC50 for O=Nc1ccc(Nc2ccccc2)cc1 .
Result: 14.9
